The following sequences are shown together with reported PBM binding z-score values.
test system: LXRa homodimer (NR concentration 270 nM); test: PBM binding z-score (relative to random genomic background probes); higher = stronger binding; sequences stand for … in GC…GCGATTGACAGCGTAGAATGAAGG
Number only, please.

| item sequence | measurement |
| --- | --- |
| GCATATAGCTAATACAAGGTGAAAGTCCGATTGT | 0.202 |
| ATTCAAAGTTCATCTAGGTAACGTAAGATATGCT | 6.17 |
| GCGACTGGGGCATCAGAAGGTTACCATAACTTAA | -0.311 |
| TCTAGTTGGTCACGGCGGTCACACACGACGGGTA | 0.832 |
| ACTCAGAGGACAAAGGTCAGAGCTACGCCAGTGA | 1.72 |
| ATCGAAAGGTCGTAAGGTGAGTATACAGAAAGGC | 0.462 |
| AATCCAGGGTCACTAGGCCAGAGTAGGTACGAAT | 0.376 |
| CTACCAAGGTGAAGAAGGTCGTTGATTACTATTC | 0.132 |

Prompt: # lookup: PBM binding z-score of TCAATGAGGTTATAAGATCAGGGAACGTTGCAAA
Response: -0.0675

Prompt: # lookup: PBM binding z-score of CCTTACGGTTCACTCCAGGTTATAGCATCGGAGT
Response: 2.54

###

system: PXR homodimer (NR concentration 270 nM); assay: PBM binding z-score (relative to random genomic background probes); higher = stronger binding; sequences stand for … in GC…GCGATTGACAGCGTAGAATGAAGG
Label 1 for high-side PBM binding z-score (at or above -0.3) and 0 for low-side PBM binding z-score (below it).

Study these solved cases before continuing.
| item sequence | assigned class |
| --- | --- |
| GCATATAGGTAATAAAAGGTGAAAGTCCGATTGT | 1 |
| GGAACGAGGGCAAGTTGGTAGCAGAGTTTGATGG | 1 |
| GATACAGGGTCAGCTAGAGGCCAGATTATGGAAA | 1 |
| CAAACTAGGTCAAGAGGTCCAAGTCCGCTTCCCG | 1 |
| CCCACTGGGGCAGAAAGGTTACCATACCATCCGG | 1 |

Prompt: Decide: PBM binding z-score of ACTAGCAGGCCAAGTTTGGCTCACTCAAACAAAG >= -0.3?
Response: 0

Prompt: Decide: PBM binding z-score of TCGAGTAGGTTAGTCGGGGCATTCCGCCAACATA >= -0.3?
Response: 0

###

test system: RARb:RXRa (NR concentration 270 nM, RXRa partner concentration 90 nM); assay: PBM binding z-score (relative to random genomic background probes); higher = stronger binding; sequences stand for … in GC…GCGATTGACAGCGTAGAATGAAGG
Labels assigned by PBM binding z-score range: 0: < 0.4; 1: ≥ 0.4 and < 3; 2: ≥ 3

Study these solved cases before continuing.
| item sequence | assigned class |
| --- | --- |
| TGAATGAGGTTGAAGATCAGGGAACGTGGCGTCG | 0 |
| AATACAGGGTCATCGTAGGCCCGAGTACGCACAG | 2 |
| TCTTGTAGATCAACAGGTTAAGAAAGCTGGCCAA | 0 |
| ATATGTAGGTTATCCGGTCATTCAGTTTGCGCAT | 1 |

Prompt: Band assignment needed for TCTAGCAGGCCAGAGTGTCACTCAAGAGGTACGG please.
Response: 0

Prompt: Band assignment needed for TCTGCGAGGTCAGTTGGTCAGCTAACGAGCTGCC please.
Response: 2

Prompt: Band assignment needed for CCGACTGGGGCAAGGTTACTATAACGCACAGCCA please.
Response: 1

Prompt: Band assignment needed for ACTAGTTGGTCAGCTGAGGTTACACACAATTCGG please.
Response: 1

Prompt: Band assignment needed for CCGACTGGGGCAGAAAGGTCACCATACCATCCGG please.
Response: 2

###

The following sequences are shown together with reported PBM binding z-score values.
test system: LXRb:RXRa (NR concentration 270 nM, RXRa partner concentration 90 nM); test: PBM binding z-score (relative to random genomic background probes); higher = stronger binding; sequences stand for … in GC…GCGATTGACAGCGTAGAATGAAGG

See these solved cases before continuing.
| item sequence | study system | PBM binding z-score |
| --- | --- | --- |
| TCTAGCAGGCCAGAGGGTCACTCAGGAGGTACGG | LXRb:RXRa (NR concentration 270 nM, RXRa partner concentration 90 nM) | 0.792 |
| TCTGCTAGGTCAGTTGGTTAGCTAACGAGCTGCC | LXRb:RXRa (NR concentration 270 nM, RXRa partner concentration 90 nM) | 0.643 |
| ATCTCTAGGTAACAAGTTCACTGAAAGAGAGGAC | LXRb:RXRa (NR concentration 270 nM, RXRa partner concentration 90 nM) | 1.56 |
| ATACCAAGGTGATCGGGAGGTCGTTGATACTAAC | LXRb:RXRa (NR concentration 270 nM, RXRa partner concentration 90 nM) | 1.34 |
| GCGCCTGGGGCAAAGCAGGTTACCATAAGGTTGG | LXRb:RXRa (NR concentration 270 nM, RXRa partner concentration 90 nM) | -0.341 |

Prompt: PBM binding z-score of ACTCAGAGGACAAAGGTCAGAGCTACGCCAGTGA on LXRb:RXRa (NR concentration 270 nM, RXRa partner concentration 90 nM)?
Response: 3.52

Prompt: PBM binding z-score of ATCTCTAGGTAAAGTTCCGTGAAAGATCGATAGA on LXRb:RXRa (NR concentration 270 nM, RXRa partner concentration 90 nM)?
Response: 0.245

Prompt: PBM binding z-score of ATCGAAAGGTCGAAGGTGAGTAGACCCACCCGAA on LXRb:RXRa (NR concentration 270 nM, RXRa partner concentration 90 nM)?
Response: 2.34

Prompt: PBM binding z-score of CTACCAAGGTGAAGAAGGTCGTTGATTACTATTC on LXRb:RXRa (NR concentration 270 nM, RXRa partner concentration 90 nM)?
Response: 1.33

###

system: PPARg DBDmut:RXRa IVT, anti-PPARg (DBD mutation: PPARg1 K132A/R137A, NR concentration 270 nM, RXRa partner concentration 90 nM); assay: PBM binding z-score (relative to random genomic background probes); higher = stronger binding; sequences stand for … in GC…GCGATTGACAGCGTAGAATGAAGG
Label class 1 for high-side PBM binding z-score (at or above 0.2) and class 0 for low-side PBM binding z-score (below it).

Study these solved cases before continuing.
| item sequence | assigned class |
| --- | --- |
| TCATATAGATAAAGGTGAAAGTCGAACGATATGA | class 1 |
| CCTACTGAGCCAAAGGTCATTGATTCCAATGCTC | class 1 |
| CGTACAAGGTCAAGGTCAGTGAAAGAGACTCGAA | class 1 |
| TCTTGTAGATCAACGGGAGGTTAAGAAAGATCGA | class 1 |
| TCTATTAGTTGTTTAGGGCAACCGAAACAGCGGA | class 1 |
| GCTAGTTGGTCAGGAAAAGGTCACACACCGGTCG | class 0 |
| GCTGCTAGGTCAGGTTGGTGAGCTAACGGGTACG | class 0 |
| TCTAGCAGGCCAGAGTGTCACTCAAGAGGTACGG | class 0 |
| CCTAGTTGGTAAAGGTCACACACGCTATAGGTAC | class 1 |

Shifting focus to the sequence that follows.
Prompt: Decide: PBM binding z-score of CCTACTGGCCCATTCAGAGGTCATTGATCATATG >= 0.2?
Response: class 0

###

The following sequences are shown together with reported PBM binding z-score values.
system: PXR homodimer (NR concentration 270 nM); experiment: PBM binding z-score (relative to random genomic background probes); higher = stronger binding; sequences stand for … in GC…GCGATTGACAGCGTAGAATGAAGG
Number only, please.

See these solved cases before continuing.
| item sequence | study system | PBM binding z-score |
| --- | --- | --- |
| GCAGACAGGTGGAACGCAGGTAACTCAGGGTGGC | PXR homodimer (NR concentration 270 nM) | -0.596 |
| CCTAGTTGCTCAGGAGGTCACACACCGGATATGA | PXR homodimer (NR concentration 270 nM) | 1.59 |
| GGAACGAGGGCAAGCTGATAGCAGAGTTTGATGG | PXR homodimer (NR concentration 270 nM) | 0.429 |
| GCGACTCGGGCAAAGCAGGTTACCATAAGGTTGG | PXR homodimer (NR concentration 270 nM) | -0.681 |
| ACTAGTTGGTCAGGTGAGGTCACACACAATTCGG | PXR homodimer (NR concentration 270 nM) | 2.28 |
| CGTCCAAGGTCAGAGAGGTCAGCGAATGCCGAGT | PXR homodimer (NR concentration 270 nM) | 10.9 |
| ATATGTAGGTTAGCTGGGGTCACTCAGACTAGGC | PXR homodimer (NR concentration 270 nM) | 2.05 |
| ACATGTAGGTTAAGGGTCATTCAGGTTGGTTCGC | PXR homodimer (NR concentration 270 nM) | 2.78 |

Prompt: # lookup: PBM binding z-score of TCATATAGGTAAATGCTAGGGGAAAGTCCGATCT
Response: 0.33

Prompt: # lookup: PBM binding z-score of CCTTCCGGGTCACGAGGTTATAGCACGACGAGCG
Response: 0.436

Prompt: # lookup: PBM binding z-score of ATCGAAAGGTCGAGGTGAGTATCGAGAAAGGGAA
Response: 0.217

Prompt: # lookup: PBM binding z-score of CGATCTAGGTCATCCAGGACAGTGAATACATTGA
Response: 1.59
